experimental.target: human ether-à-go-go-related gene (hERG) potassium channel (human, UniProt Q12809);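 note: peak tail current of the secondary pulse compared with the same well before compound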
Sequence (Q12809 whole entry, looked up): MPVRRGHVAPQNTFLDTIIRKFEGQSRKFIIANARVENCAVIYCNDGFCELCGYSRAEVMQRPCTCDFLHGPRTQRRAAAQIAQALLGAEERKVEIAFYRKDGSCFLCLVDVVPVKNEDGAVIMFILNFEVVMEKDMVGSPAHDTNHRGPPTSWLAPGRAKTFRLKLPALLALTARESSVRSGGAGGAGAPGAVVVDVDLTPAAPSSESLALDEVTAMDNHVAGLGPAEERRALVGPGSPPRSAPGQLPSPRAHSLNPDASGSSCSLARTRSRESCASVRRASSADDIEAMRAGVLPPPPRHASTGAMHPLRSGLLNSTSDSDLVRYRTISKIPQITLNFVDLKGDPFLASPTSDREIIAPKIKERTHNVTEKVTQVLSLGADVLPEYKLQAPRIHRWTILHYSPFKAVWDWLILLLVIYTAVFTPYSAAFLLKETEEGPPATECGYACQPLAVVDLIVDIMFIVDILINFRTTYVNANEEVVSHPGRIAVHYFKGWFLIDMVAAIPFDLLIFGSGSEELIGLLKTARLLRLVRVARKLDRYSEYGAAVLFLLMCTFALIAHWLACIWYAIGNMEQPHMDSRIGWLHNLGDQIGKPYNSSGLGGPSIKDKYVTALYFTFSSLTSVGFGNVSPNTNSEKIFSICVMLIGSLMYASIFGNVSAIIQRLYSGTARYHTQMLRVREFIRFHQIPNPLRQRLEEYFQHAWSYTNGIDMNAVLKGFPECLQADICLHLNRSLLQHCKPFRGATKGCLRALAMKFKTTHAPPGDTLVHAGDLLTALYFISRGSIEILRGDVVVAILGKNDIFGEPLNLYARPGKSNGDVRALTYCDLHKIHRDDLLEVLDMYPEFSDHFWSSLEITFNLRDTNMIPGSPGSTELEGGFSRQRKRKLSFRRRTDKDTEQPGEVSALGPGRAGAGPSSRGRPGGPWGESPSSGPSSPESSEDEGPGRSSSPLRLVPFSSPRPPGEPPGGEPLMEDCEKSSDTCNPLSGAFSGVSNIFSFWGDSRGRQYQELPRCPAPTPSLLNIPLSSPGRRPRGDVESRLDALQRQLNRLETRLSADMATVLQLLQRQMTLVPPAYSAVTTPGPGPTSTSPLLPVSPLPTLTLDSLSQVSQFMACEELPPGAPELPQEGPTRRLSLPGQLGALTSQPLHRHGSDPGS
test: primary screen, population patch clamp on CHO cells stably expressing hERG; higher = less effect of the substance
Procedure: Briefly, Chinese hamster ovary (CHO) cells stably expressing the hERG channel were dislodged from tissue culture flasks and dispensed into PPC plates. […] During the recording, background leak currents were estimated by a 100 ms step to -80 mV from an initial holding potential of -70 mV and subtracted from the subsequent current measurement. The campaign was conducted in two phases using slight differences in recording protocol. […]
In all, about 310,000 compounds went through this assay and about 14,000 (4.5%) showed an effect of 50% or more. Effects have a minus sign here. The list comes from a sample in which strong results are over-represented; it also holds close analogues and randomly drawn compounds.
reported.property: hERG current change (%, negative = inhibition) at 10uM (%)

{"compound": "Cc1nc2nc(NC(=O)c3ccco3)nn2c(C)c1Cl", "experimental.target": "human ether-à-go-go-related gene (hERG) potassium channel (human, UniProt Q12809)", "test.result": -1.18}
{"compound": "COc1cccc(CNC(=O)Cc2ccc(Br)cc2)c1", "experimental.target": "human ether-à-go-go-related gene (hERG) potassium channel (human, UniProt Q12809)", "test.result": 5.59}
{"compound": "COc1ccc(CC2(CO)CCN(Cc3cccn3-c3ccccn3)CC2)cc1", "experimental.target": "human ether-à-go-go-related gene (hERG) potassium channel (human, UniProt Q12809)", "test.result": -75.4}
{"compound": "CC1CN(CCCOc2ccc([N+](=O)[O-])cc2)CC(C)O1.O=C(O)C(=O)O (stereo not shown)", "experimental.target": "human ether-à-go-go-related gene (hERG) potassium channel (human, UniProt Q12809)", "test.result": -71.6}
{"compound": "COc1ccc(CC2(CO)CCN(Cc3cccc(OC)c3OC)CC2)cc1", "experimental.target": "human ether-à-go-go-related gene (hERG) potassium channel (human, UniProt Q12809)", "test.result": -60.5}
{"compound": "CC1CN(CCCCOc2ccc(F)cc2)CC(C)O1.O=C(O)C(=O)O (stereo not shown)", "experimental.target": "human ether-à-go-go-related gene (hERG) potassium channel (human, UniProt Q12809)", "test.result": -42.7}
{"compound": "CCc1ccc(-n2c(SCc3cc(=O)n4cc(Br)ccc4n3)nc3[nH]ncc3c2=O)cc1", "experimental.target": "human ether-à-go-go-related gene (hERG) potassium channel (human, UniProt Q12809)", "test.result": -51}

---

In this section we review reported hERG current change (%, negative = inhibition) at 10uM values for a set of molecules.
experimental.target: human ether-à-go-go-related gene (hERG) potassium channel (human, UniProt Q12809);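 note: peak tail current of the secondary pulse compared with the same well before compound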
test: primary screen, population patch clamp on CHO cells stably expressing hERG; higher = less effect of the substance
The whole screen tested about 310,000 compounds, of which about 14,000 (4.5%) showed an effect of 50% or more. Effects have a minus sign here. What follows is part of a selection rich in strong results, with near analogues and random picks from the rest.
reported.property: hERG current change (%, negative = inhibition) at 10uM (%)

{"molecule": "O=C(Nc1cccc(C(F)(F)F)c1)C1CCCN1S(=O)(=O)c1cccc2cccnc12 (stereo not drawn)", "experimental.target": "human ether-à-go-go-related gene (hERG) potassium channel (human, UniProt Q12809)", "test.result": -12.4}
{"molecule": "CCOc1ccc(CCNC(=O)CN(C)S(=O)(=O)c2cccc3nsnc23)cc1OCC", "experimental.target": "human ether-à-go-go-related gene (hERG) potassium channel (human, UniProt Q12809)", "test.result": -9.79}
{"molecule": "CC(=O)N1CC(C)Sc2ccc(S(=O)(=O)NCc3ccc(F)cc3)cc21 (stereo not drawn)", "experimental.target": "human ether-à-go-go-related gene (hERG) potassium channel (human, UniProt Q12809)", "test.result": -49.6}
{"molecule": "O=C(C1CCCN1S(=O)(=O)c1cccc2cccnc12)N1CCN(c2ccccc2)CC1 (stereo not drawn)", "experimental.target": "human ether-à-go-go-related gene (hERG) potassium channel (human, UniProt Q12809)", "test.result": -45}
{"molecule": "O=C(C1CCCN1S(=O)(=O)c1cccc2cccnc12)N1CCc2ccccc21 (stereo not drawn)", "experimental.target": "human ether-à-go-go-related gene (hERG) potassium channel (human, UniProt Q12809)", "test.result": -31.7}
{"molecule": "O=C(C1CCCN1S(=O)(=O)c1cccc2cccnc12)N1CCn2c1nc1ccccc12 (stereo not drawn)", "experimental.target": "human ether-à-go-go-related gene (hERG) potassium channel (human, UniProt Q12809)", "test.result": -50.8}
